Let's look at some sequences and their measured shrunken log2 fold change.
System: Escherichia coli TOP10
protocol_text: shrunken log2 fold change of peptide-encoding DNA abundance (4.5 h post-induction vs induction); higher = less antimicrobial activity (less host growth inhibition)
cond: time post-induction: 4.5 h; library: site-saturation at positions 5, 18, 19, 20
Returns: the value as a bare number; no unit string appended.

Examples with their reported shrunken log2 fold change follow.
>  <macromolecule_sequence>
RRIRCRPPRLPRPRPRPNSLPRP

>  <target_system>
Escherichia coli TOP10

>  <obs_value>
-0.0801

$$$$
>  <macromolecule_sequence>
RRIRCRPPRLPRPRPRPRVMPRP

>  <target_system>
Escherichia coli TOP10

>  <obs_value>
0.278

$$$$
>  <macromolecule_sequence>
RRIRCRPPRLPRPRPRPFWNPRP

>  <target_system>
Escherichia coli TOP10

>  <obs_value>
-0.278

$$$$
>  <macromolecule_sequence>
RRIRGRPPRLPRPRPRPMAEPRP

>  <target_system>
Escherichia coli TOP10

>  <obs_value>
1.73

$$$$

Req: What measured shrunken log2 fold change goes with RRIRKRPPRLPRPRPRPCWDPRP ?
Resp: 0.0719

Req: What measured shrunken log2 fold change goes with RRIRYRPPRLPRPRPRPNPVPRP ?
Resp: 0.000723

###

Tested on: Escherichia coli TOP10
protocol_text: shrunken log2 fold change of peptide-encoding DNA abundance (4.5 h post-induction vs induction); higher = less antimicrobial activity (less host growth inhibition)
cond: time post-induction: 4.5 h; library: site-saturation at positions 5, 18, 19, 20
Let's look at some sequences and their measured shrunken log2 fold change.
Returns: the value as a bare number; no unit string appended.

Examples with their reported shrunken log2 fold change follow.
>  <macromolecule_sequence>
RRIRFRPPRLPRPRPRPTCCPRP

>  <obs_value>
-0.0828

$$$$
>  <macromolecule_sequence>
RRIRCRPPRLPRPRPRPLIDPRP

>  <obs_value>
-0.301

$$$$

Req: What measured shrunken log2 fold change goes with RRIRMRPPRLPRPRPRPNMPPRP ?
Resp: -0.286

Req: What measured shrunken log2 fold change goes with RRIRTRPPRLPRPRPRPHVYPRP ?
Resp: -0.496

###

Tested on: Escherichia coli TOP10;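 further: peptides expressed intracellularly from a pBAD plasmid library in pooled LB shake-flask culture, induced with 0.3% L-arabinose, DNA abundance read by NGS, three biological replicates, DESeq2 with apeglm shrinkage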
protocol_text: shrunken log2 fold change of peptide-encoding DNA abundance (4.5 h post-induction vs induction); higher = less antimicrobial activity (less host growth inhibition)
cond: time post-induction: 4.5 h; library: site-saturation at positions 5, 18, 19, 20
quantity_kind: shrunken log2 fold change
Returns: the value as a bare number; no unit string appended.

Examples with their reported shrunken log2 fold change follow.
>  <macromolecule_sequence>
RRIRQRPPRLPRPRPRPEKYPRP

>  <shrunken log2 fold change>
-0.304

$$$$
>  <macromolecule_sequence>
RRIRGRPPRLPRPRPRPQPGPRP

>  <shrunken log2 fold change>
0.606

$$$$
>  <macromolecule_sequence>
RRIRWRPPRLPRPRPRPVSEPRP

>  <shrunken log2 fold change>
0.0771

$$$$
>  <macromolecule_sequence>
RRIRTRPPRLPRPRPRPISCPRP

>  <shrunken log2 fold change>
0.0135

$$$$
>  <macromolecule_sequence>
RRIRVRPPRLPRPRPRPETYPRP

>  <shrunken log2 fold change>
-0.316

$$$$
>  <macromolecule_sequence>
RRIRYRPPRLPRPRPRPLWEPRP

>  <shrunken log2 fold change>
-0.369

$$$$
>  <macromolecule_sequence>
RRIRIRPPRLPRPRPRPNLAPRP

>  <shrunken log2 fold change>
-0.114

$$$$
>  <macromolecule_sequence>
RRIRRRPPRLPRPRPRPYAGPRP

>  <shrunken log2 fold change>
-0.137

$$$$
>  <macromolecule_sequence>
RRIRWRPPRLPRPRPRPTPRPRP

>  <shrunken log2 fold change>
0.851

$$$$
>  <macromolecule_sequence>
RRIRWRPPRLPRPRPRPMGPPRP

>  <shrunken log2 fold change>
0.041

$$$$

Next up:
Req: What measured shrunken log2 fold change goes with RRIRARPPRLPRPRPRPVSTPRP ?
Resp: -0.0272
